# Test system: Clostridium difficile
# assay_name: growth AUC relative to DMSO control (median of replicates) (fraction); higher = more growth (less inhibition), active = hit call of the paper
# assay_conditions: 20 µM; 24 h
Listing of recorded growth AUC by entry.

{"compound": "CNC(=O)N(C)c1nnc(C(C)(C)C)s1", "growth AUC": 1}
{"compound": "O=S(=O)(Oc1ccc(Cl)cc1)c1ccc(Cl)cc1", "growth AUC": 1.01}
{"compound": "CCOc1cc(C(C)(C)C)ccc1C1COC(c2c(F)cccc2F)=N1 (configuration not stated)", "growth AUC": 0.942}
{"compound": "CNC(=O)CSP(=O)(OC)OC", "growth AUC": 1.03}
{"compound": "NC(=O)/N=C1/SCCN1Cc1ccc(Cl)nc1", "growth AUC": 1}
{"compound": "CCc1cc(C)cc(CC)c1-c1c(OC(=O)C(C)(C)C)n2n(c1=O)CCOCC2", "growth AUC": 0.944}
{"compound": "CC(C)OC(=O)C(C(=O)OC(C)C)=C1SCCS1", "growth AUC": 1.02}
{"compound": "CCc1nn(C)c(C(=O)NCc2ccc(Oc3ccc(C)cc3)cc2)c1Cl", "growth AUC": 1.04}
{"compound": "N#Cc1c(O)c(Cl)c(Cl)c(C#N)c1Cl", "growth AUC": 1.02}
{"compound": "O=C(NC(=O)c1ccccc1Cl)Nc1ccc(OC(F)(F)F)cc1", "growth AUC": 0.946}
{"compound": "Oc1ccc(Cl)c(Cl)c1Cl", "growth AUC": 0.998}
{"compound": "CC(=O)O.CCCCCCCCCCCCN=C(N)N", "growth AUC": 1}
